Molecular target: T1, CaBdf1 BD1 (GST-tagged, wild-type) (Candida albicans (strain SC5314 / ATCC …, UniProt Q5A4W8))
T1 chain: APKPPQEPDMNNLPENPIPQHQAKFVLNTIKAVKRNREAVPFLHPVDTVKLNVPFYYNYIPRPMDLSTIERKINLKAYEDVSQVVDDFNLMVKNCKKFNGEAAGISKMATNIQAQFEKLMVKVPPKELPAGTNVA
Assay: histone peptide array (Active Motif MODified), 1 uM GST-tagged bromodomain, anti-GST detection, normalized mean intensity
Numbered stars: 1 amine (or outer) side, 2 acyl side, 3 side chain; on linkers, the order of the positions; unused ones are H or OH. Square brackets hold non-standard residues; d marks the D form. Ends that are not written are not given here. Arg(Me2a) = CN(C)C(=N)NCCC[C@H](N)C(=O)O; Kac = CC(=O)NCCCC[C@H](N[*:1])C(=O)[*:2]; Arg(Me2s) = CN=C(NC)NCCC[C@H](N)C(=O)O; Lys(Me2) = CN(C)CCCC[C@H](N)C(=O)O; pS = N[C@@H](COP(=O)(O)O)C(=O)O; Me2a = not defined here
Please go through the items and note down their binding score.
# print the numeric value only

Request the reported binding score associated with PRKQLATKAAR(Me2a)K(Ac)SAPATGG (reading uncertain) [H3 16-35]
0.0189

# repeat for ARTKQTARKSTGGKAPRKQ (A Rme2s T Kme2 Q T A Rme2a Kme3 S T G G K A P R K Q)
0.00508

# repeat for "ARTKQTA[Arg(Me2a)]K(Me)[pS]TGGKAPRKQ"
0.00326

# repeat for "A[Arg(Me2s)]T[Lys(Me2)]QTA[Arg(Me2a)][Kac]STGGKAPRKQ"
0.0402

# repeat for "A[Arg(Me2a)]T[Lys(Me2)]QTA[Arg(Me2s)][Lys(Me2)]STGGKAPRKQ"
0.0029

# repeat for ARTKQTARKSTGGKAPRKQ (not fully specified)
0
